testSettings: pH 7.4
# reported logD; entries follow
readoutKind: logD

Cc1cc(CCCCCCCOc2ccc(C3=NCCO3)cc2)on1 = 4.79
Cn1c([N+](=O)[O-])cnc1-c1ccc(F)cc1 = 1.83
Cc1cc2c3ccccc3nc-2[nH]c1N = 2.9
CSc1ncc([N+](=O)[O-])n1C = 0.94
N#Cc1cccc2cccnc12 = 1.39
Cn1c([N+](=O)[O-])cnc1-c1ccc(N)cc1 = 1.06
OC[C@H]1O[C@@H](n2cnc3c2NC=NC[C@H]3O)C[C@@H]1O = -2.09
Cc1ncc([N+](=O)[O-])n1CCNC(=O)OC(C)C = 0.88
O=C1CN=C(c2ccccc2F)c2cc(Br)ccc2N1 = 2.98
Fc1cccc2cccnc12 = 2.19
Nc1ccc2c(n1)[nH]c1ccccc12 = 2.6
CC(C)Cn1c(=O)n(C)c(=O)c2[nH]c(CC(O)N3CCN(C(c4ccccc4)c4ccccc4)CC3)nc21 (stereo not drawn) = 5.21
CC(C)c1ccc([N+](=O)[O-])cc1 = 3.45
CN1C(=O)CN=C(c2ccccc2C(F)(F)F)c2cc([N+](=O)[O-])ccc21 = 2.45
CC(=O)Oc1cccc2cccnc12 = 2.03
CN(C)c1nc2c3cccnc3ccc2n1C = 2.28
CCCc1ncc([N+](=O)[O-])n1CCNC(=S)OC = 1.94
COC(=O)Cn1c([N+](=O)[O-])cnc1C = 0.17
O=[N+]([O-])c1ncn(CC(F)(F)CO)n1 = -0.21
COC(=O)c1ccc(-c2ncc([N+](=O)[O-])n2C)cc1 = 1.63
CCc1ccc([N+](=O)[O-])cc1 = 3.03
c1ccc(C23CCCN2CCO3)cc1 (stereo not drawn) = 1.04
CC(=O)Nc1cccc2cccnc12 = 1.91
CC(C)Cn1c(=O)n(C)c(=O)c2[nH]c(CCN3CCN(C(c4ccc(F)cc4)c4ccc(F)cc4)CC3)nc21 = 4.16
Cn1cc(-c2ccccc2)c(=O)c(-c2cccc(C(F)(F)F)c2)c1 = 3.16
Cn1c(N)nc2ncc(-c3ccccc3)cc21 = 2.23
Cn1cc2ccc([N+](=O)[O-])cc2n1 = 1.76
O=[N+]([O-])c1cn(Cc2ccccc2)cn1 = 1.36
Cn1c([N+](=O)[O-])cnc1COc1ccc(Cl)cc1 = 1.8
CCc1cccc2cccnc12 = 2.93
CS(=O)c1ccc2c(c1)C(c1ccccc1)=NCC(=O)N2 (stereo not drawn) = 0.8
O=C(NC(F)(F)F)c1cccc2cccnc12 = 3.24
Cc1ccc(C=Cc2ncc([N+](=O)[O-])n2CO)cc1 = 2.25
COC(=S)NCCn1c([N+](=O)[O-])cnc1C = 1.09
CCN(CCO)c1ccccc1 = 2.1
CCCc1ccc([N+](=O)[O-])cc1 = 3.45
ICCI = 2.71
COC(=O)NCCn1c([N+](=O)[O-])cnc1C = 0.02
CCOC(=S)NCCn1c([N+](=O)[O-])cnc1C = 1.5
Cc1cc(C)c2c(c1)C(c1ccccc1)=NCC(=O)N2 = 2.94
Nc1ncc(Cc2ccccc2O)c(N)n1 = 0.82
CNC(=O)c1cccc2cccnc12 = 1.87
Cc1cc(=O)[nH]c(=O)[nH]1 = -0.77

----------
# reported logP; entries follow
readoutKind: logP

CS(C)(=O)=O = -1.34
Cn1c(N)nc2ccc(Cl)cc21 = 2.01
ClCC#CCCl = 2.01
O=C(COC(=O)c1ccccc1)NC1CCCCC1 = 2.81
CS(=O)(=O)ON1C(=O)c2ccc([N+](=O)[O-])cc2C1=O = 1.71
O=C(OCCc1ccccc1)c1ccccc1 = 4.01
CNC(=S)N(C)C = 0.1
CCCCSP(=O)(SCCCC)SCCCC = 3.23
CCC(C)c1cc([N+](=O)[O-])cc(C(C)CC)c1O (stereo not given) = 4.8
CN(C)N=Nc1cccc2oc3ccccc3c12 = 4.55
N#CCC(=O)c1ccccc1 = 0.97
CCCOCCN(C(=O)CCl)c1c(CC)cccc1CC = 4.08
NC1CC1 = 0.07
C=CC1(C)OC(=O)N(c2cc(Cl)cc(Cl)c2)C1=O (stereo not given) = 3.1
COC(=O)CCCCC(=O)OC = 1.03
COC(=O)C(=O)OC = -0.17
Cc1cccc(OCC(O)CNC(C)C)c1 (stereo not given) = 2.02
CNC(=N[N+](=O)[O-])NCCSCc1nc[nH]c1C = 0.13
Cc1nn(C)c(OCC(=O)c2ccccc2)c1C(=O)c1ccc(Cl)cc1Cl = 3.69
Cc1cc(C)[nH]n1 = 1.01
CC(=O)CCC(C)=O = -0.27
CCCCn1cc(C)c(=O)[nH]c1=O = 0.91
COC=O = 0.03
CCOC(=O)N(C)C = 0.89
O=[N+]([O-])c1cccc(SSc2cccc([N+](=O)[O-])c2)c1 = 4.06
CC(=O)N[C@@H](CC(C)C)C(=O)N[C@@H](CCCNC(=N)N)C(=O)N[C@@H](Cc1ccccc1)C(N)=O = -0.06
CCC(C)N(C(=O)SCc1ccccc1)C(C)CC (stereo not given) = 4.4
COc1cc(C)c2c(c1OC)C1CCC(NCc3ccccc3)C(=O)CC1C(NC(C)=O)CC2 (stereo not given) = 3.58
CCC(=O)OC = 0.82
CCOC(=O)CC(=O)C=Cc1ccc2c(c1)OCO2 = 2.35

----------
# reported logP; entries follow
readoutKind: logP

FC(F)(F)C(=NOCC1OCCO1)c1ccc(Cl)cc1 = 3.9
O=c1[nH]c2ccccc2n1C1CCN(CCOc2ccccc2)CC1 = 4.18
CC1(C)CN(CCN2CCN(c3cccc(Cl)c3)C2=O)C1 = 3.91
O=C1NC(=O)[C@@]2(CCOc3ccc(F)cc32)N1 = 0.78
CC(C)=CC1C(C(=O)OCc2ccc(C)cc2C)C1(C)C (stereo not given) = 4.5
CCN1CCCC1CNC(=O)c1cc(N(C)S(C)(=O)=O)c(Cl)cc1OC (stereo not given) = 2.62
CNc1nc(Cl)c(SC)c(N2CCN(C)CC2)n1 = 2.99
O=C(O)Cc1nn(Cc2ccc(Br)cc2F)c(=O)c2ccccc12 = 2.68
CCN1CCCC1CNC(=O)c1cc(NS(N)(=O)=O)ccc1OC (stereo not given) = 2.02
CCN1CCCC1CNC(=O)c1cc(NS(N)(=O)=O)c(Cl)cc1OC (stereo not given) = 2.66
O=C1NCN(c2ccccc2)C12CCN(CCCC(c1ccc(F)cc1)c1ccc(F)cc1)CC2 = 5.86
N=C1C=CC(=C(c2ccc(N)cc2)c2ccc(N)cc2)C=C1 = -0.21
c1ccc(Cn2cnnn2)cc1 = 1.36
CN1C(C(=O)Nc2ccccn2)=C(O)c2sc(Cl)cc2S1(=O)=O = 2.62
Cc1cc2c(s1)Nc1ccc(F)cc1N=C2N1CCN(C)CC1 = 2.98
CCCN1CCCC1CNC(=O)c1cc(S(N)(=O)=O)ccc1OC (stereo not given) = 2.06
C1=Cc2ccc3c4c(ccc(c24)C1)-c1ccccc1-3 = 5.78
Cc1ccc2c(c1)C(N1CCN(CCO)CC1)CC2c1ccc(F)cc1 (stereo not given) = 3.57
COc1cc(Cc2cnc(N)nc2N)cc(Br)c1OC = 2.23
OCCN1CCN(C2CC(c3ccc(F)cc3)c3ccc(F)cc32)CC1 (stereo not given) = 3.3

----------
# reported logP; entries follow
readoutKind: logP

Clc1cc(Cl)c2cc(Cl)ccc2c1 = 5.35
COC(=O)Nc1c(C(C)C)cccc1C(C)C = 2.2
COC(=O)CC#N = -0.47
CNC(=O)Oc1cccc2c1OC(C)(C)O2 = 1.7
c1ccc2c(c1)CCCC2 = 3.49
CNC1=C(N2CC2)C(=O)C(NC)=C(N2CC2)C1=O = 0.13
O=S(Cc1ccccc1)Cc1ccccc1 = 1.99
CCCCC(NC(Cc1ccccc1)C(=O)N1CCC(OCOC)CC1)C(=O)NC(CC1CCCCC1)C(O)CC(C(=O)NCCNC(N)=NC#N)C(C)C (stereo unspecified) = 4.14
O=[N+]([O-])c1ccccc1CO = 1.24
O=[N+]([O-])c1ccc(O)c(O)c1 = 1.66
COC(=O)CC(C)C = 1.82

----------
readoutKind: logP

c1ccc(Cn2cccc2)cc1 = 2.71
c1ccc(Cn2ncnn2)cc1 = 1.03
CCN1CCC[C@H]1CNC(=O)c1cc(I)ccc1OC = 3.23
C#CCNS(=O)(=O)c1ccc(OC)c(C(=O)NCC2CCCN2CC)c1 (configuration not stated) = 2.42
CCc1c(C)[nH]c2c1C(=O)C1CN(C)CCC1C2 (configuration not stated) = 1.78
O=C(O)Cc1c[nH]c2ccc(O)cc12 = 1.17
OCCN1CCN(C2CC(c3ccc(F)cc3)c3ccccc32)CC1 (configuration not stated) = 2.95
CCN1CCCC1CNC(=O)c1cc(N(C)S(C)(=O)=O)ccc1OC (configuration not stated) = 2.29
CSc1ccc2c(c1)C(N1CCN(CCO)CC1)CC2c1ccc(F)cc1 (configuration not stated) = 3.8
c1ccc(NCCCOc2cccc(CN3CCCCC3)c2)nc1 = 4.29
CC(=O)c1c(C)n(C)c2ccccc12 = 2.03
OCCN1CCN(CCCC2c3ccc(F)cc3Sc3ccc(C(F)(F)F)cc32)CC1 (configuration not stated) = 4.47
